# experiment.notes: NCI Yeast Anticancer Drug Screen. Data for the mlh1 rad18 strain (AID 175)
# experimental.conditions: S. cerevisiae mlh1 rad18 strain growth inhibition; at 50.0 µM; active compounds read high
The panel holds about 79,000 compounds, 15% with a hit somewhere; the sample as a whole holds those more often.
Outcome label depends on growth inhibition relative to 10%: at/above gives True, below gives False.

Ask | Can `CCOC(=O)CN=c1nc(SC)sc2c(C(=O)OCC)nc(Sc3ccccc3)n12` be said to have growth inhibition at or above 10%?
Reply | False

Ask | Has `O=P(NC1CCCCC1)(NC1CCCCC1)NC1CCCCC1` a recorded growth inhibition greater than or equal to 10%?
Reply | True

Ask | # check: growth inhibition of CCOC(=O)C1CC(=O)C=C2CCCCC21 (stereo not given) is greater than or equal to 10%
Reply | True

Ask | Exam item: decide whether the reported growth inhibition for N#Cc1c[nH]c2cccc([N+](=O)[O-])c12 (tested in a mixture with another compound) is at least 10%.
Reply | False

Ask | For this compound, is measured growth inhibition 10% or higher? `CC(=O)/C(=C/n1c(=S)[nH]c2ccccc21)C(=O)Nc1ccc([N+](=O)[O-])cc1`
Reply | False
